Quick reference: IC60, neutralizing activity (hMPV infection of LLC-MK2 cells; GraphPad Prism 6) of the listed items.
molecular target: F protein of human metapneumovirus strain JPS03-178 (type A2), on infectious virus (human metapneumovirus, strain JPS03-178 …); assay: cell-based or functional assay
measurement label: IC60, neutralizing activity (hMPV infection of LLC-MK2 cells; GraphPad Prism 6) (µg/mL)

binder	measured
EV046141 (antibody, human IgG1, lambda, V domains shown) VH: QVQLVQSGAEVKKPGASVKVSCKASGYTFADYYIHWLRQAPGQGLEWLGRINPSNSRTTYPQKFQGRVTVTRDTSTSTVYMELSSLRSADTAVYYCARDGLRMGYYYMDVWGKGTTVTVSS VL: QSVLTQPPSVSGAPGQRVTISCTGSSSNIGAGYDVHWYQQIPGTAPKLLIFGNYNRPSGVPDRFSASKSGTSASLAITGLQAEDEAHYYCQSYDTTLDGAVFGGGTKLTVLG	2.18
EV046142 (antibody, human IgG1, lambda, V domains shown) VH: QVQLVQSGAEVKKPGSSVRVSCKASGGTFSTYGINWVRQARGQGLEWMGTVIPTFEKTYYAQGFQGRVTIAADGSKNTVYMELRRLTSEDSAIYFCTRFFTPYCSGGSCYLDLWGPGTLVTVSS VL: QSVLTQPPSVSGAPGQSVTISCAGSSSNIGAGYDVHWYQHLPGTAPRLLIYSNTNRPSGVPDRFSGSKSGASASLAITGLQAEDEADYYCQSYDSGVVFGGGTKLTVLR	0.0971
EV046143 (antibody, human IgG1, kappa, V domains shown) VH: QVQLVQSGAEVQKPGSSVKVSCKTSGDTFNNYALSWVRQAPGQGPEWMGRIIPLVEMANYAQKFQGRVTITADKSTTTIYMELSSLRSEDTAMYYCARDGYQGGFPYFFDSWGQGTLVTVSS VL: EVVLTQSPGTLSLSPGERATLSCRASQSVSNYLAWYQQKPGQAPRLLISAASSRATGIPDRFGGSGSGADFTLTISRLEPEDFAVYYCQQYGFSPGTFGQGTKVEIRR	0.0266
